B1: Activity-dependent neuroprotector homeobox protein, residues 770 to 810; numbered along this chain, Q9H2P0 (parent)
chain: FLTKYFNKQPYPTRREIEKLAASLWLWKSDIASHFSNKRKK

variants of: B1; experiment: abundance fitness (aPCA) (normalised: wild type 0, dead -1); higher = more abundant; growth selection in yeast, the domain comes from the species named; details: Homo sapiens
Classes are defined on abundance fitness with ranges Low = under -0.2, Medium = from -0.2 up to -0.01, High = -0.01 and over

Example entries begin here.
VARIANT DESIGNATION | DISCRETE LABEL
T13Q | Medium
E16P | High
W25C | Medium
E18P | Medium
A22N | Medium
F6E | Low
A22T | Medium
P12K | High

Request: Looking at L20W , which class would you pick?
Result: High

Request: Looking at S33V , which class would you pick?
Result: Low

Request: Looking at K38H , which class would you pick?
Result: Medium
